Just for reference, paper PMC3532304 is where these values come from.

Below, each entry is listed alongside its reported IC50.
# TARGET OR TEST SYSTEM: TBNAT (Mycobacterium tuberculosis)
# Construct: made in house
# Sequence (P9WJI5 whole entry): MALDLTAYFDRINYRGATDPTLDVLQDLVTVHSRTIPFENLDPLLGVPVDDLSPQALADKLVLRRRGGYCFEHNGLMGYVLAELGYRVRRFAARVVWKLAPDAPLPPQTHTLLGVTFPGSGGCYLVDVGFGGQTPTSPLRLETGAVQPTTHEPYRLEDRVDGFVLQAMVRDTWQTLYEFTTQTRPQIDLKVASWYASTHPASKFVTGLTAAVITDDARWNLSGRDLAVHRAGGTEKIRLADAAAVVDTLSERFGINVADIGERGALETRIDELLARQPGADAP
# PROCEDURE SUMMARY: NAT-inhibition assay (Ac-CoA hydrolysis with hydralazine, Ellman's reagent)
# Type: biochemical, M. tuberculosis
# CONDITION SUMMARY: 150 µM HLZ, 120 µM Ac-CoA; 24°C; mean ± S.D.
I only need the number, in nM, no unit after it.

**Query** Can you look up the measured IC50 of CN1CCC(O)(c2ccc(Cl)cc2)C(C(=O)c2ccc(Cl)cc2)C1 (centres unmarked) for me?
**Result** 1600

**Query** Report IC50 for CC1(C)CC(N2CCC(O)(c3ccccc3)C(C(=O)c3ccccc3)C2)CC(C)(C)N1 (centres unmarked) please.
**Result** 1100

**Query** Which IC50 value is on record for O=C(c1ccccc1)C1CN(C2CCCCC2)CCC1(O)c1ccccc1 (centres unmarked) ?
**Result** 4400

**Query** Given CN1CCC(O)(c2ccccc2)C(C(=O)c2ccccc2)C1 (centres unmarked) , state its recorded IC50.
**Result** 7700

Then there is this compound:
**Query** Quick one: IC50 of `CN(CCC(=O)c1ccccc1)CCC(=O)c1ccccc1` ?
**Result** 1200
